# Test system: heart muscle
# method description: Heart muscle uptake and elimination of radiolabelled fatty acids after tail vein injection in mice
# Assay type: in vivo, NMRI mice
# test context: mouse, in vivo, iv
Elimination Half-time, rapid elimination vs 1 min: less than gives fulfilled; not less than gives not fulfilled.

# compound, assayed system, assigned category
measured = [
    ("CCCCCCCCCCCCCCCCC([34Cl])C(=O)O (stereo not shown) [2-^34m Cl-Stearic acid]", "heart muscle", "fulfilled"),
    ("O=C(O)CCCCCCCCCCCCCCCC[123I]", "heart muscle", "not fulfilled"),
    ("CCCCCCCCCCCCCCCCC([123I])C(=O)O (stereo not shown)", "heart muscle", "not fulfilled"),
    ("O=C(O)CCCCCCCCCCCCCCC[123I]", "heart muscle", "not fulfilled"),
    ("CCCCCCCCCCCCCCC[11C](=O)O [1-[^11 C] Palmitic acid]", "heart muscle", "fulfilled"),
    ("O=C(O)CCCCCCCCCCCCCCCC[77Br]", "heart muscle", "fulfilled"),
]
